System: pERK in PSN1 cells
TEST_METHOD_NOTES: Inhibition of KRas phosphorylation of ERK (Cisbio HTRF pERK assay)
CONDITION_NOTES: Homo sapiens, PSN1, 3 h, read-out: Inhibition (HTRF IC50) of KRas-mediated Phosphorylation of ERK, PSN1
Please respond with reported IC50 for every item in the list.
Numbers only, in µM.

// input: 3 compounds below; output: IC50 for each
1. CCc1c(F)ccc2cc(O)cc(-c3ncc4c(N5CCC(F)(F)C(O)C5)nc(OC[C@@]56CCCN5C[C@H](F)C6)nc4c3F)c12 (stereo partly shown)
2. O=C1CC2(CCCN(c3nc(OC[C@@]45CCCN4C[C@H](F)C5)nc4c(F)c(-c5cc(O)cc6ccc(F)c(Br)c56)ncc34)C2)N1 (stereo partly shown)
3. Oc1cc(-c2ncc3c(N4CCC[C@]5(C4)C[C@@H](O)C5)nc(OC[C@@]45CCCN4C[C@H](F)C5)nc3c2F)c2c(F)c(F)ccc2c1 (single isomer, unassigned)

5.85
6.73
2.85

// input: 6 compounds below; output: IC50 for each
1. CCc1c(F)ccc2cc(O)cc(-c3ncc4c(N5CCC[C@@](C)(O)C5)nc(OCC(C)(C)CN(C)C)nc4c3F)c12
2. CCc1c(F)ccc2cc(O)cc(-c3ncc4c(N5CCCC6(CSC6)C5)nc(OC[C@@]56CCCN5C[C@H](F)C6)nc4c3F)c12
3. CCc1c(F)ccc2cc(O)cc(-c3ncc4c(N5C[C@H](O)C[C@H](F)C5)nc(OC[C@@]56CCCN5C[C@H](F)C6)nc4c3F)c12
4. O=C1CC2(CCCN(c3nc(OC[C@@]45CCCN4C[C@H](F)C5)nc4c(F)c(-c5cc(O)cc6ccc(F)c(F)c56)ncc34)C2)N1 (stereo partly shown)
5. CCc1c(F)ccc2cc(O)cc(-c3ncc4c(N5CCCn6nc(C(=O)N7CCCC7)cc6C5)nc(OC[C@@]56CCCN5C[C@H](F)C6)nc4c3F)c12
6. CCc1c(F)ccc2cc(O)cc(-c3ncc4c(N5CCCC6(C5)NC(=O)NC6=O)nc(OCC5(CN(C)C)CC5)nc4c3F)c12 (stereo not shown)

5.53
2.86
7.34
4.08
6.77
4.09

---

EXPERIMENTAL_TARGET: KRas G12D (Homo sapiens, UniProt P01116, G12D);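 also: TR-FRET displacement binding assay on KRas, read after a one-hour incubation at room temperature, IC50 fitted from percent-of-control values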
Sequence (P01116 1-169 isoform P01116-2 G12D): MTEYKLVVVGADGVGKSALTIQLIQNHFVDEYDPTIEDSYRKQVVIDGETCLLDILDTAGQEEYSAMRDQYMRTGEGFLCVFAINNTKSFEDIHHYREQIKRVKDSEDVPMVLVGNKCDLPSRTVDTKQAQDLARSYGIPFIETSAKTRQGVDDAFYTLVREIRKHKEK
TEST_METHOD_NOTES: biochemical
Friendly reminder: IC50 below 4 µM is 1.0, at or above is 0.0.

COMPOUND	EXPERIMENTAL_TARGET	CLASSIFICATION
CCc1c(F)ccc2cc(O)cc(-c3ncc4c(N5CCCn6nc(CO)cc6C5)nc(OC[C@@]56CCCN5C[C@H](F)C6)nc4c3F)c12	KRas G12D (Homo sapiens, UniProt P01116, G12D)	1.0
Oc1cc(-c2ncc3c(N4CCC[C@]5(C4)C[C@@H](O)C5)nc(OC[C@@]45CCCN4C[C@H](F)C5)nc3c2F)c2c(F)c(F)ccc2c1 (single isomer, unassigned)	KRas G12D (Homo sapiens, UniProt P01116, G12D)	1.0
Fc1c(-c2cccc3cccc(F)c23)ncc2c(NCc3cnn4c3OCCC4)nc(OCC34CCCN3CCC4)nc12	KRas G12D (Homo sapiens, UniProt P01116, G12D)	0.0
CCc1c(F)ccc2cc(O)cc(-c3ncc4c(N5CCC[C@@](C)(O)C5)nc(OC[C@]56CCCN5[C@@H](CO)CC6)nc4c3F)c12	KRas G12D (Homo sapiens, UniProt P01116, G12D)	1.0
CCc1c(F)ccc2cc(O)cc(-c3ncc4c(N5C[C@H](O)C[C@@H](O)C5)nc(OC[C@@]56CCCN5C[C@H](F)C6)nc4c3F)c12 [Example 296]	KRas G12D (Homo sapiens, UniProt P01116, G12D)	1.0
O=C1NC(=O)C2CN(c3nc(OC[C@@]45CCCN4C[C@H](F)C5)nc4c(F)c(-c5cc(O)cc6ccc(F)c(Br)c56)ncc34)CC12 (some centres unmarked)	KRas G12D (Homo sapiens, UniProt P01116, G12D)	1.0

Is IC50 strictly under 4 µM for the entry CC(Nc1nc(OCC23CCCN2CCC3)nc2c(F)c(-c3cccc4cccc(F)c34)ncc12)c1c[nH]c2ncccc12 (centres unmarked) ?
0.0

Is IC50 strictly under 4 µM for the entry `Fc1c(-c2cccc3cccc(F)c23)ncc2c(N3CCCOCC3)nc(OCC34CCCN3CCC4)nc12` ?
1.0

Is IC50 strictly under 4 µM for the entry `CCc1c(F)ccc2cc(O)cc(-c3ncc4c(N5CCCc6nn(C(=O)NC(C)C)cc6C5)nc(OC[C@@]56CCCN5C[C@H](F)C6)nc4c3F)c12` ?
1.0

Is IC50 strictly under 4 µM for the entry C[C@H]1C[C@H]1c1c(Cl)cc2[nH]ncc2c1-c1ncc2c(N3CCC[C@@](C)(O)C3)nc(OC[C@@]34CCCN3C[C@H](F)C4)nc2c1F (racemic) ?
1.0

Is IC50 strictly under 4 µM for the entry `CCc1c(F)ccc2cc(O)cc(-c3ncc4c(N5CCC[C@@](C)(O)C5)nc(OC[C@@]56CCCN5C[C@H](O)C6)nc4c3F)c12` ?
1.0

Is IC50 strictly under 4 µM for the entry N#CCc1cccc2cccc(-c3ncc4c(N5CCCC6(CC(=O)N6)C5)nc(OCC56CCCN5CCC6)nc4c3F)c12 (centres unmarked) ?
1.0

Is IC50 strictly under 4 µM for the entry `Fc1c(-c2cccc3cccc(F)c23)ncc2c(NCCCc3cccnc3)nc(OCC34CCCN3CCC4)nc12` ?
0.0
